- TARGET OF ASSAY: mouse nerve growth factor (mouse, UniProt P01139 122-241)
- Sequence (P01139 122-241): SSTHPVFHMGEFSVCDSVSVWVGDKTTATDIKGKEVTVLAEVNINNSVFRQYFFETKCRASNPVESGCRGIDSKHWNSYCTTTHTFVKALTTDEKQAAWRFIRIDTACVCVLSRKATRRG
- EXPERIMENTAL PROTOCOL: cell-based or functional assay

# BINDER, UNIT NAME, IC50, FLIPR calcium mobilisation
records = [
    ("1165D4 human IgG4 (antibody, V domains shown) VH: EVQLVQSGAEVKKPGSSVKVSCKASGGTFSTYGISWVRQAPGQGLEWIGGIIPIFDTGNSAQSFQGRVTITADESTSTAYMEVSSLRSDDTAVYYCASSSRIYDLNPSLTAYYDMDVWGQGTMVTVSS VL: QAVLTQPSSVSTPPGQKVTISCSGSSSNIENNYVSWYQQLPGTAPKLLIYDNNKRPSGIPDRFSGSKSGTSATLGITGLQTGDEADYYCGTWDSSLSAWVFGGGTKLTVL", "pM", 160),
    ("1132A9 human IgG4 (antibody, V domains shown) VH: EVQLVQSGAEVKKPGSSVKVSCKASGGTFSTYGISWVRQAPGQGLEWIGGIIPIFGTGNSAQSFQGRVTITADESTSTAYMEVSSLRSDDTAVYYCASSSRIYDFEPSLIYYYDMDVWGQGTMVTVSS VL: QAVLTQPSSVSTPPGQKVTISCSGSSSNIGNNYVSWYQQLPGTAPKLLIYDNNKRPSGIPDRFSGSKSGTSATLGITGLQTGDEADYYCGTWDSSLSAWVFGGGTKLTVL", "pM", 330),
    ("1126G5 human IgG4 (antibody, V domains shown) VH: EVQLVQSGAEVKKPGSSVKVSCKASGGTFSTYGISWVRQAPGQGLEWIGGIIPIFDTGNSAQSFQGRVTITADESTSTAYMEVSSLRSDDTAVYYCASSSRIYDFTSGLAPYYDMDVWGQGTMVTVSS VL: QAVLTQPSSVSTPPGQKVTISCSGSSSNIGNNYVSWYQQLPGTAPKLLIYDNNKRPPGIPDRFSGSKSGTSATLGITGLQTGDEADYYCGTWDSSLSTWVFGGGTKLTVL", "pM", 160),
    ("1021E5 human IgG4 (antibody, V domains shown) VH: EVQLVQSGAEVKKPGSSVKVSCKASGGTFSTYGISWVRQAPGQGLEWIGGIIPIFDTGNSAQSFQGRVTITADESTSTAYMEVSSLRSDDTAVYYCASSSRIYDYAGGDHYYYDMDVWGQGTMVTVSS VL: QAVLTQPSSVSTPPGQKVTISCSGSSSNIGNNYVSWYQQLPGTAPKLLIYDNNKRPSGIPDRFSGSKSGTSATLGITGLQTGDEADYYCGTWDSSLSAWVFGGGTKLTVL", "pM", 47000),
    ("G1165D4 human IgG4 (antibody, V domains shown) VH: QVQLVQSGAEVKKPGSSVKVSCKASGGTFSTYGISWVRQAPGQGLEWMGGIIPIFDTGNSAQSFQGRVTITADESTSTAYMELSSLRSEDTAVYYCARSSRIYDLNPSLTAYYDMDVWGQGTMVTVSS VL: QSVLTQPPSVSAAPGQKVTISCSGSSSNIENNYVSWYQQLPGTAPKLLIYDNNKRPSGIPDRFSGSKSGTSATLGITGLQTGDEADYYCGTWDSSLSAWVFGGGTKLTV", "pM", 270),
]
